The origin of these recorded values is paper PMC6412877.

assayed_system: Mouse GLP-1R (mouse) (UniProt O35659)
Sequence (O35659 22-463): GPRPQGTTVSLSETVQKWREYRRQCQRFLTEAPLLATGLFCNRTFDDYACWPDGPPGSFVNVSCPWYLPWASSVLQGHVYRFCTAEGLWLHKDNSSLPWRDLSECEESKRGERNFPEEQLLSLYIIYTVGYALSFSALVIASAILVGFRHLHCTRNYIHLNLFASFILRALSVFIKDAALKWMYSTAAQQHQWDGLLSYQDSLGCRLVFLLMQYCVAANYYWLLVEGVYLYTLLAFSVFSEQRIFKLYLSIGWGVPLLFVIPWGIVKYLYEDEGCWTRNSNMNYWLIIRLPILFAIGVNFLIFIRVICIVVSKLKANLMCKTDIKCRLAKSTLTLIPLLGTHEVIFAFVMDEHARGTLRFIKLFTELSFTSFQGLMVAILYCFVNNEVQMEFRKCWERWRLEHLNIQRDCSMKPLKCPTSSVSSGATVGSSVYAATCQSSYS
Ends that are not written are not given here. fatty chain = not defined here
Please use satisfied whenever Emax (%), Mouse GLP-1R activation, in vitro cell assay is not below 80%, and not satisfied whenever it is.

* FFYSSPSAYLK(fatty chain)TGGPSSGAPPPS (reading uncertain; also: fatty chain not given here) [PEP19] | satisfied
* FFYSSPSAYLEKGGPSSGAPPPS [PEP16] | satisfied
* FFYSSPSAYLEK(fatty chain)GGPSSGAPPPS (reading uncertain; also: fatty chain not given here) [PEP20] | satisfied
* FFYSSPSAKLETGGPSSGAPPPS [PEP13] | satisfied
* FFYSSPSAK(fatty chain)LETGGPSSGAPPPS (reading uncertain; also: fatty chain not given here) [PEP17] | not satisfied
* FFYSSPSAYKETGGPSSGAPPPS [PEP14] | satisfied
* FFYSSPSAYLKTGGPSSGAPPPS [PEP15] | not satisfied
